For each entry below, report its remaining binding at 1 µM value.
- assayed.target: EGFR(T790M) (Homo sapiens, UniProt P00533, T790M)
- Construct: purchased Eurofins DiscoverX KINOMEscan (scanTK)
- Sequence (P00533 25-1210 T790M): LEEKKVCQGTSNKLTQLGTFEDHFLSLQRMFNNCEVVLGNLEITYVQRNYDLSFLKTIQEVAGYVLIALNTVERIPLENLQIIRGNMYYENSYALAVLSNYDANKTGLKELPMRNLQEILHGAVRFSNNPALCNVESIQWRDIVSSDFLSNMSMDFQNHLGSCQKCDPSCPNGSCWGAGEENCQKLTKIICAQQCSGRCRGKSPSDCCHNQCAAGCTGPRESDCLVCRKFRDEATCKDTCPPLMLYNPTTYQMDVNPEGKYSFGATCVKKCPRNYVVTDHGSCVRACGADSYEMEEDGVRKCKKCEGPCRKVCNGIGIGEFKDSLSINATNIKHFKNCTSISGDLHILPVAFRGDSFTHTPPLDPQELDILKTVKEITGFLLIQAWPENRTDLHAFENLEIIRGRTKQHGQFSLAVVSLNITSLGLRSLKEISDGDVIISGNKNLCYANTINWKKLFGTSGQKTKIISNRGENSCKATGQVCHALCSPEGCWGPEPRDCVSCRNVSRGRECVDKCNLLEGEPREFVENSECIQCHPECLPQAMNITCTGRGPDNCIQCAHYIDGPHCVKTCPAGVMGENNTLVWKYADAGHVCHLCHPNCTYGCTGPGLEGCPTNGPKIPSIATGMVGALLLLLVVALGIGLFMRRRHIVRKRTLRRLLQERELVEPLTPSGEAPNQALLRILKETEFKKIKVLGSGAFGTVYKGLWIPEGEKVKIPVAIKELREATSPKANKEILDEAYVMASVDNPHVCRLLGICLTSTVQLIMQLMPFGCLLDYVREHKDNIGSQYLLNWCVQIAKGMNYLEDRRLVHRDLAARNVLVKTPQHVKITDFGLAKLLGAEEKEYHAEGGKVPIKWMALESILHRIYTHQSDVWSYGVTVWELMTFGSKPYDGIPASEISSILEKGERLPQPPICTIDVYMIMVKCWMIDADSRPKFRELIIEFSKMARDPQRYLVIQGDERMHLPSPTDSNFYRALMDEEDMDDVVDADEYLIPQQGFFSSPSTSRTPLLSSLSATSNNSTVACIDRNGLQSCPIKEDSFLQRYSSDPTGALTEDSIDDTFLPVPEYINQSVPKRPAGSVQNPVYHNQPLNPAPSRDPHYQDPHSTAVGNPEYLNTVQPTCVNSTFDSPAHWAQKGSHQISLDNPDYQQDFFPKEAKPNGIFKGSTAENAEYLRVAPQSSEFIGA
- assay.overview: KINOMEscan ScanTK
- Format: binding
- test.parameters: read-out: %Control @1000nM
Answers are plain numbers, in %.

// worked examples, remaining binding at 1 µM included
{"compound": "COC(=O)c1cnc(S(C)(=O)=O)nc1N1CCCC(n2nc(-c3ccc(Oc4ccccc4)cc3)c3c(N)ncnc32)C1 (stereo not shown)", "assayed.target": "EGFR(T790M) (Homo sapiens, UniProt P00533, T790M)", "readout.units": "%", "remaining binding at 1 µM": 42}
{"compound": "CNC(=O)c1cnc(S(C)(=O)=O)nc1N1CCCC(n2nc(-c3ccc(Oc4ccccc4)cc3)c3c(N)ncnc32)C1 (stereo not shown)", "assayed.target": "EGFR(T790M) (Homo sapiens, UniProt P00533, T790M)", "readout.units": "%", "remaining binding at 1 µM": 19}
{"compound": "Cc1cnc(S(C)(=O)=O)nc1N1CCCC(n2nc(-c3ccc(Oc4ccccc4)cc3)c3c(N)ncnc32)C1 (stereo not shown)", "assayed.target": "EGFR(T790M) (Homo sapiens, UniProt P00533, T790M)", "readout.units": "%", "remaining binding at 1 µM": 70}

What value of measured remaining binding at 1 µM is listed for "CCOC(=O)c1cnc(S(C)(=O)=O)nc1N1CCC[C@@H](n2nc(-c3ccc(Oc4ccccc4)cc3)c3c(N)ncnc32)C1" ?
73

###

- assayed.target: KIT(D816H) (Homo sapiens, UniProt P10721, D816H)
- Construct: purchased Eurofins DiscoverX KINOMEscan (scanTK)
- assay.overview: KINOMEscan ScanTK
- Type: binding
- test.parameters: @1000nM, read-out: %Control
For each record, check the reported remaining binding at 1 µM: if it is below 90% write 1, else write -1.

Consider the following illustrative entries.
{"compound": "Cc1cnc(S(C)(=O)=O)nc1N1CCCC(n2nc(-c3ccc(Oc4ccccc4)cc3)c3c(N)ncnc32)C1 (centres unmarked)", "qualitative.label": 1}
{"compound": "CCOC(=O)c1cnc(S(C)(=O)=O)nc1N1CCC[C@@H](n2nc(-c3ccc(Oc4ccccc4)cc3)c3c(N)ncnc32)C1", "qualitative.label": 1}
{"compound": "COC(=O)c1cnc(S(C)(=O)=O)nc1N1CCCC(n2nc(-c3ccc(Oc4ccccc4)cc3)c3c(N)ncnc32)C1 (centres unmarked)", "qualitative.label": -1}
{"compound": "C=CC(=O)N1CCC[C@@H](n2nc(-c3ccc(Oc4ccccc4)cc3)c3c(N)ncnc32)C1 [Compound 1g, Ibrutinib, reference compound]", "qualitative.label": -1}

Now, please, on to the next compound.
In plain terms, does CNC(=O)c1cnc(S(C)(=O)=O)nc1N1CCCC(n2nc(-c3ccc(Oc4ccccc4)cc3)c3c(N)ncnc32)C1 (centres unmarked) come in under 90% for remaining binding at 1 µM?
1

###

- assayed.target: MET(M1250T) (Homo sapiens, UniProt P08581, M1250T)
- Construct: purchased Eurofins DiscoverX KINOMEscan (scanTK)
- Sequence (P08581 25-1390 M1250T): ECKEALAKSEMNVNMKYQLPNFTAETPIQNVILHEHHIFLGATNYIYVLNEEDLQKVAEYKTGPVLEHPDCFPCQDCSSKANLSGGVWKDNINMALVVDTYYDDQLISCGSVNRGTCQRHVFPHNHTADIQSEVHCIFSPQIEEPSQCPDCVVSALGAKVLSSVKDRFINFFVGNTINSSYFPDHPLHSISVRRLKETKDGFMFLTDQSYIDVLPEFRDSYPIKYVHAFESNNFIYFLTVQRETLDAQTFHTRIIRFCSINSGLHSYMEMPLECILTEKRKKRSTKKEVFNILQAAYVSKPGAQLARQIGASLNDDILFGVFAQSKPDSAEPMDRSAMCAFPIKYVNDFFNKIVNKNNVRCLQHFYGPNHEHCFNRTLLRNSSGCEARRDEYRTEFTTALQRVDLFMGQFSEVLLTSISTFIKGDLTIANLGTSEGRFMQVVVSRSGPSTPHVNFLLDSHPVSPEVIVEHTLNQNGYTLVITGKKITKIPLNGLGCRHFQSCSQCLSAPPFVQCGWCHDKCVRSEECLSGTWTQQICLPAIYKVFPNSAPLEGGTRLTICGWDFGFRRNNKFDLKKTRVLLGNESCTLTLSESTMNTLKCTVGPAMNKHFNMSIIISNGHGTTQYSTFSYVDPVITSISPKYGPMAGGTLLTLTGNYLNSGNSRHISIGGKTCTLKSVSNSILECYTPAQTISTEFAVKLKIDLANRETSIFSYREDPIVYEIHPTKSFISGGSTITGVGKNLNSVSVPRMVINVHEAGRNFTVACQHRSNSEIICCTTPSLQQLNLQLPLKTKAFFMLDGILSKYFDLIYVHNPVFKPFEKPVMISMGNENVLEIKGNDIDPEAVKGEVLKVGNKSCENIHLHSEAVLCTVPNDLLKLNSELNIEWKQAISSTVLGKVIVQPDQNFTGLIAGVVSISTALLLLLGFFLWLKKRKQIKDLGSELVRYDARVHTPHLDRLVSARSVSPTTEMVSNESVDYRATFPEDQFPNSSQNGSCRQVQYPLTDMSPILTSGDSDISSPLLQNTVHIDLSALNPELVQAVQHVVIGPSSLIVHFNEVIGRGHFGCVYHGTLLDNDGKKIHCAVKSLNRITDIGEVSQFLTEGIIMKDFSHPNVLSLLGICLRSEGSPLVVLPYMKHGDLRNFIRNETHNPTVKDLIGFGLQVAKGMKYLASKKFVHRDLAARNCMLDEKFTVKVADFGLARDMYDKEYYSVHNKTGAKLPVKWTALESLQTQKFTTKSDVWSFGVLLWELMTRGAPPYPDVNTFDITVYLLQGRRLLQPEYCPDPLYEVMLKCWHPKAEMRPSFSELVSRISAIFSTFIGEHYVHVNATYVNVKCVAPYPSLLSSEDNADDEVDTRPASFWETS
- assay.overview: KINOMEscan ScanTK
- Assay type: binding
- test.parameters: @1000nM, read-out: %Control
quantity.kind: remaining binding at 1 µM (%)
One number for each entry, in %.

Consider the worked cases shown below.
{"compound": "CCOC(=O)c1cnc(S(C)(=O)=O)nc1N1CCC[C@@H](n2nc(-c3ccc(Oc4ccccc4)cc3)c3c(N)ncnc32)C1 [Compound 8c]", "assayed.target": "MET(M1250T) (Homo sapiens, UniProt P08581, M1250T)", "readout.units": "%", "test.result": 96}
{"compound": "Cc1cnc(S(C)(=O)=O)nc1N1CCCC(n2nc(-c3ccc(Oc4ccccc4)cc3)c3c(N)ncnc32)C1 (centres unmarked) [Compound 8a]", "assayed.target": "MET(M1250T) (Homo sapiens, UniProt P08581, M1250T)", "readout.units": "%", "test.result": 88}
{"compound": "CNC(=O)c1cnc(S(C)(=O)=O)nc1N1CCCC(n2nc(-c3ccc(Oc4ccccc4)cc3)c3c(N)ncnc32)C1 (centres unmarked) [Compound 8d]", "assayed.target": "MET(M1250T) (Homo sapiens, UniProt P08581, M1250T)", "readout.units": "%", "test.result": 100}
{"compound": "C=CC(=O)N1CCC[C@@H](n2nc(-c3ccc(Oc4ccccc4)cc3)c3c(N)ncnc32)C1 [Compound 1g, Ibrutinib, reference compound]", "assayed.target": "MET(M1250T) (Homo sapiens, UniProt P08581, M1250T)", "readout.units": "%", "test.result": 96}

We next turn to a different compound, shown below.
Find the recorded remaining binding at 1 µM belonging to COC(=O)c1cnc(S(C)(=O)=O)nc1N1CCCC(n2nc(-c3ccc(Oc4ccccc4)cc3)c3c(N)ncnc32)C1 (centres unmarked) [Compound 8b] and report it.
96

###

Would you mind telling me the reported remaining binding at 1 µM of each entry?
- assayed.target: ERBB2 (Homo sapiens, UniProt P04626)
- Construct: purchased Eurofins DiscoverX KINOMEscan (scanTK)
- assay.overview: KINOMEscan ScanTK
- Format: binding
- test.parameters: ERBB2; read-out: %Control @1000nM
Numbers only, in %.

{"compound": "Cc1cnc(S(C)(=O)=O)nc1N1CCCC(n2nc(-c3ccc(Oc4ccccc4)cc3)c3c(N)ncnc32)C1 (centres unmarked) [Compound 8a]", "quantity.kind": "remaining binding at 1 µM", "test.result": 53}
{"compound": "COC(=O)c1cnc(S(C)(=O)=O)nc1N1CCCC(n2nc(-c3ccc(Oc4ccccc4)cc3)c3c(N)ncnc32)C1 (centres unmarked) [Compound 8b]", "quantity.kind": "remaining binding at 1 µM", "test.result": 41}
{"compound": "CNC(=O)c1cnc(S(C)(=O)=O)nc1N1CCCC(n2nc(-c3ccc(Oc4ccccc4)cc3)c3c(N)ncnc32)C1 (centres unmarked) [Compound 8d]", "quantity.kind": "remaining binding at 1 µM", "test.result": 5.5}
{"compound": "CCOC(=O)c1cnc(S(C)(=O)=O)nc1N1CCC[C@@H](n2nc(-c3ccc(Oc4ccccc4)cc3)c3c(N)ncnc32)C1 [Compound 8c]", "quantity.kind": "remaining binding at 1 µM", "test.result": 48}

Proceeding to the next compound to report its remaining binding at 1 µM.
Record request: remaining binding at 1 µM value, item C=CC(=O)N1CCC[C@@H](n2nc(-c3ccc(Oc4ccccc4)cc3)c3c(N)ncnc32)C1 [Compound 1g, Ibrutinib, reference compound]
0

###

- assayed.target: EPHB2 (Homo sapiens, UniProt P29323)
- Construct: purchased Eurofins DiscoverX KINOMEscan (scanTK)
- Sequence (P29323 19-1055): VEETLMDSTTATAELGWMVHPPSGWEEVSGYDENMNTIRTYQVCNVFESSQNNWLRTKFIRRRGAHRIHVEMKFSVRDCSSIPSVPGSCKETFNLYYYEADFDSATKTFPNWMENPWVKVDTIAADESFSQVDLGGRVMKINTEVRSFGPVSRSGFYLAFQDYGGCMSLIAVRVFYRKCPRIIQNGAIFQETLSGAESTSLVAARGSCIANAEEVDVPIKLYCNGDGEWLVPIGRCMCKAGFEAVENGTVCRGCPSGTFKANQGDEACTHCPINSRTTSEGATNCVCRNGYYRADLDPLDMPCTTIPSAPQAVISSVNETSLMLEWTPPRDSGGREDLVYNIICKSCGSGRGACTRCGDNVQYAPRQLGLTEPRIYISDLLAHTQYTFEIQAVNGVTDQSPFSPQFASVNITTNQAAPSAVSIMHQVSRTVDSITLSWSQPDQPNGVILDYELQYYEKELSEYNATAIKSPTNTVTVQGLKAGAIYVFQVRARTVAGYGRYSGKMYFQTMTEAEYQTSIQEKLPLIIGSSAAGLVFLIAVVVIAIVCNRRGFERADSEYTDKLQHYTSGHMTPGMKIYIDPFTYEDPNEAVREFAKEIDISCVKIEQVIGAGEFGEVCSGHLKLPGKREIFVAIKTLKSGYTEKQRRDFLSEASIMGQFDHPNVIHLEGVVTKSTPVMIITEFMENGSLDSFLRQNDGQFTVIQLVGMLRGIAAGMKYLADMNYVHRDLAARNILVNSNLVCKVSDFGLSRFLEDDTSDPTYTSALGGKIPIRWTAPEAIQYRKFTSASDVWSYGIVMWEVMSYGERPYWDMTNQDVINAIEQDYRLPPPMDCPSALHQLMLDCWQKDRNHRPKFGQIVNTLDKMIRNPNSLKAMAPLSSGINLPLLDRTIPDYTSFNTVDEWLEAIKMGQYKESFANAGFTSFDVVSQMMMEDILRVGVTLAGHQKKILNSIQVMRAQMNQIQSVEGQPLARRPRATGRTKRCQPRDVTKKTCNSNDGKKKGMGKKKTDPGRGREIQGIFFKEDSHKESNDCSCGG
- assay.overview: KINOMEscan ScanTK
- Format: binding
- test.parameters: read-out: %Control @1000nM
Doc: threshold 90% (exclusive). Items with remaining binding at 1 µM beneath it return 1.0; others return 0.0.

Observe how each entry below is paired with its result.
{"compound": "Cc1cnc(S(C)(=O)=O)nc1N1CCCC(n2nc(-c3ccc(Oc4ccccc4)cc3)c3c(N)ncnc32)C1 (centres unmarked)", "qualitative.label": 1.0}
{"compound": "C=CC(=O)N1CCC[C@@H](n2nc(-c3ccc(Oc4ccccc4)cc3)c3c(N)ncnc32)C1 [Compound 1g, Ibrutinib, reference compound]", "qualitative.label": 0.0}
{"compound": "CCOC(=O)c1cnc(S(C)(=O)=O)nc1N1CCC[C@@H](n2nc(-c3ccc(Oc4ccccc4)cc3)c3c(N)ncnc32)C1", "qualitative.label": 0.0}

Okay, next one:
Just wondering, is remaining binding at 1 µM of CNC(=O)c1cnc(S(C)(=O)=O)nc1N1CCCC(n2nc(-c3ccc(Oc4ccccc4)cc3)c3c(N)ncnc32)C1 (centres unmarked) below 90%?
0.0

###

- assayed.target: PDGFRB (Homo sapiens, UniProt P09619)
- Construct: purchased Eurofins DiscoverX KINOMEscan (scanTK)
- Sequence (P09619 33-1106): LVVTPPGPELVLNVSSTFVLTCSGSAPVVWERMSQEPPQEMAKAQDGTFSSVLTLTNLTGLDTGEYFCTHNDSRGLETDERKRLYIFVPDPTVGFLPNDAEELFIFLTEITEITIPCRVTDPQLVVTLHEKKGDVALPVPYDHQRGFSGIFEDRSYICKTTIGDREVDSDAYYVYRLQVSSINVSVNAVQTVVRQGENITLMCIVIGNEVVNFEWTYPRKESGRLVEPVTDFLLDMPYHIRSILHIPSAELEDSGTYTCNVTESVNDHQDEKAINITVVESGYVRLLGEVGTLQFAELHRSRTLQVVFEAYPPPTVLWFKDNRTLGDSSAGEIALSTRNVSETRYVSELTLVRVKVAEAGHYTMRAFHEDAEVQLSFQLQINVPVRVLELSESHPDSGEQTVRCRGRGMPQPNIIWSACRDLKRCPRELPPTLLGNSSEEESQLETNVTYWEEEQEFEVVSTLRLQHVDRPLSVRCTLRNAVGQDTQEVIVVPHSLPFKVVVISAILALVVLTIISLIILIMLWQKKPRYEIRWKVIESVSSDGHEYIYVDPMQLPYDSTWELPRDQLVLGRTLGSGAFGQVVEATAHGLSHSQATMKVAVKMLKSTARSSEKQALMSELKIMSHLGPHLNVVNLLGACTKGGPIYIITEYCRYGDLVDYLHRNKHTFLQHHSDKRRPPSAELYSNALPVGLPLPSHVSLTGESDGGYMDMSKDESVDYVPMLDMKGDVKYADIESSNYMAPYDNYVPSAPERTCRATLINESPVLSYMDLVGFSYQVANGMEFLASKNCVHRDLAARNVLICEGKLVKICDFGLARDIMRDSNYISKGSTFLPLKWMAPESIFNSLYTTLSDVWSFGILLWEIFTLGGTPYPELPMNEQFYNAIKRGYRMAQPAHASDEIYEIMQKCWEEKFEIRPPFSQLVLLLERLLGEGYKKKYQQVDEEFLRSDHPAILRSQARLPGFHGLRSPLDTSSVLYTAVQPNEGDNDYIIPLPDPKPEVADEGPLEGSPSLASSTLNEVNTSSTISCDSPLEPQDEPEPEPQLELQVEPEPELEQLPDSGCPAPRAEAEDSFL
- assay.overview: KINOMEscan ScanTK
- Type: binding
- test.parameters: @1000nM, read-out: %Control
quantity.kind: remaining binding at 1 µM (%)
One number for each entry, in %.

Consider the worked cases shown below.
{"molecule": "COC(=O)c1cnc(S(C)(=O)=O)nc1N1CCCC(n2nc(-c3ccc(Oc4ccccc4)cc3)c3c(N)ncnc32)C1 (centres unmarked)", "quantity.kind": "remaining binding at 1 µM", "test.result": 68}
{"molecule": "C=CC(=O)N1CCC[C@@H](n2nc(-c3ccc(Oc4ccccc4)cc3)c3c(N)ncnc32)C1 [Compound 1g, Ibrutinib, reference compound]", "quantity.kind": "remaining binding at 1 µM", "test.result": 25}

Give remaining binding at 1 µM for each listed item.
1. CCOC(=O)c1cnc(S(C)(=O)=O)nc1N1CCC[C@@H](n2nc(-c3ccc(Oc4ccccc4)cc3)c3c(N)ncnc32)C1
2. CNC(=O)c1cnc(S(C)(=O)=O)nc1N1CCCC(n2nc(-c3ccc(Oc4ccccc4)cc3)c3c(N)ncnc32)C1 (centres unmarked)
3. Cc1cnc(S(C)(=O)=O)nc1N1CCCC(n2nc(-c3ccc(Oc4ccccc4)cc3)c3c(N)ncnc32)C1 (centres unmarked)

1: 87; 2: 77; 3: 27
